# Test system: Fer (mouse);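 further: 11-residue human phosphosite peptides and single-mutation variants displayed on the E. coli surface, counted by deep sequencing, each peptide's frequency after selection divided by its frequency in the unselected input library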;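 further: frequency after pTyr selection over input frequency; kinase dosed for 20-30% of maximal phosphorylation in three min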
# Assay info: phosphorylation enrichment, bacterial display (enrichment ratio); higher = better substrate or ligand; peptides without Tyr show the background
For each of the sequences below, state its phosphorylation enrichment.

Entry VREIRYQGGNR [VWF_Y1570] : reported phosphorylation enrichment = ? 0.402

Entry KNDSIYVVKGN [KIT_Y823_N822I] : reported phosphorylation enrichment = ? 0.47

Entry SGPRCYTIAAL [TTR_Y125_R124C] : reported phosphorylation enrichment = ? 0.554

Entry MCDKEYYSVHN [MET_Y1234_Y1230C] : reported phosphorylation enrichment = ? 0.594

Entry LGIDRYHAIVF [NPSR1_Y147_S143G_YF] : reported phosphorylation enrichment = ? 1.04

Entry EWKNNYPRLRE [OPA1_Y582] : reported phosphorylation enrichment = ? 0.4

Entry DHYNQYEQQKM [CHD7_Y75] : reported phosphorylation enrichment = ? 0.451

Entry GIYEDYVEGLR [MYL6_Y89_T85I] : reported phosphorylation enrichment = ? 6.33

Entry LDYNEYFRDLN [HPRT1_Y198] : reported phosphorylation enrichment = ? 0.555

Entry VTQEPYELFCE [CBL_Y368_Q367P_YF] : reported phosphorylation enrichment = ? 1.15

Entry LKLKAYRFSIS [LCT_Y974_V971L] : reported phosphorylation enrichment = ? 1.26

Entry STGRSYAGVAV [KLHL3_Y577] : reported phosphorylation enrichment = ? 0.31

Entry EKMWTYMPSAE [GRIA4_Y695_R697P] : reported phosphorylation enrichment = ? 0.396

Entry LEFNEYFRDLN [HPRT1_Y198_D194E_YF] : reported phosphorylation enrichment = ? 0.769

Entry RLLRGHDQYAY [HLA-B_Y137] : reported phosphorylation enrichment = ? 0.467

Entry EGLRRYLENGK [HLA-A_Y195_W191G] : reported phosphorylation enrichment = ? 0.291

Entry DDDPEDRKFLE [UPF3B_Y160_Y160D] : reported phosphorylation enrichment = ? 0.56

Entry WISNRYPDFSS [PRPH2_Y184_L185P] : reported phosphorylation enrichment = ? 0.484

Entry PGLSSYGVPAS [FLNB_Y1530] : reported phosphorylation enrichment = ? 0.408

Entry FETDFYQKGGK [INSR_Y1190_R1191Q_YF] : reported phosphorylation enrichment = ? 0.47

Entry RLAKTYETTLE [ALB_Y377] : reported phosphorylation enrichment = ? 0.721

Entry GVFSRHFTTFD [CLCA1_Y661_Y661H_YF] : reported phosphorylation enrichment = ? 0.946

Entry FLLRVYSIFSK [SGCE_Y38_T36R] : reported phosphorylation enrichment = ? 0.433

Entry LHSEAYLKYIE [PBRM1_Y1610] : reported phosphorylation enrichment = ? 0.665

Entry WLQKLYNNFVN [MYO5C_Y526] : reported phosphorylation enrichment = ? 0.483

Entry GGSDCYGSLRP [MYLK_Y846_R845C] : reported phosphorylation enrichment = ? 0.558

Entry RGLQVYHRRNA [LRP2_Y2010] : reported phosphorylation enrichment = ? 0.803

Entry GANSEYIIAEK [ECHS1_Y35_F33S] : reported phosphorylation enrichment = ? 0.468

Entry VLPIDYYFPPQ [AR_Y552] : reported phosphorylation enrichment = ? 0.694

Entry IGSHAYGDQYR [IDH1_Y135_R132S] : reported phosphorylation enrichment = ? 0.374

Entry ENRKFYKDLKE [PURA_Y156_M157K_YF] : reported phosphorylation enrichment = ? 0.387

Entry SECCKYKTDNP [OSMR_Y689_I691T] : reported phosphorylation enrichment = ? 0.387

Entry FLENFYDLKKD [MMP3_Y42_YF] : reported phosphorylation enrichment = ? 0.472

Entry IIEDPYFGNDF [ACP1_Y132_S137F_YF] : reported phosphorylation enrichment = ? 0.757

Entry LTRDIYKNDFF [ROS1_Y2110_A2106T_YF] : reported phosphorylation enrichment = ? 0.937

Entry FADPFYDFEIE [ZC3H18_Y372_YF] : reported phosphorylation enrichment = ? 0.752

Entry FGLQAYTEVKT [ALDH2_Y502_YF] : reported phosphorylation enrichment = ? 0.608

Entry LFMGDYVGRGY [PPP2CA_Y86_D88G] : reported phosphorylation enrichment = ? 0.713

Entry ELANLYHHVCM [BICD2_Y538] : reported phosphorylation enrichment = ? 1.77

Entry GTFVIYVRFSG [FLNB_Y1687_G1691S_YF] : reported phosphorylation enrichment = ? 0.443

Entry YTGNTYRVGDT [FN1_Y106] : reported phosphorylation enrichment = ? 0.415

Entry KSVVTYSPTTG [ITGB3BP_Y32_I30V] : reported phosphorylation enrichment = ? 0.369

Entry VFGEEYEEQPR [ZMYM2_Y1033] : reported phosphorylation enrichment = ? 0.514

Entry SNKLTYGTMVF [ACOX1_Y275] : reported phosphorylation enrichment = ? 0.631

Entry MSRNLYSGDCF [DDR2_Y736_Y740C_YF] : reported phosphorylation enrichment = ? 0.911

Entry DLSEVYKPRRK [CCDC93_Y176] : reported phosphorylation enrichment = ? 0.521

Entry RRVEPYGENFN [APOA4_Y310] : reported phosphorylation enrichment = ? 0.542

Entry TLLERYGMIEI [ACSF3_Y355_T358I] : reported phosphorylation enrichment = ? 0.632
